# measuredOn: Human autotaxin enzyme (Homo sapiens)
# Construct: purchased R&D System
# testDetails: Evaluation of autotaxin inhibitor, Method B (Test Example 2): TG-mTMP fluorescence
# Assay type: biochemical
# conditionNotes: Assay Method B (Test Example 2), human autotaxin; read-out: Inhibitory Activity (autotaxin enzyme inhibitory activity, IC50 class)
pIC50: −log10 of the molar value.
observable: pIC50

Recorded results for 6 compounds are shown here.
• CCCCCn1c(C)cc(=O)n2cc(-c3ccc(N4CCCC4=O)cc3)nc12 = < 6.00
• CCCCCn1c(NCc2ccc(OC)cc2)cc(=O)n2cc(-c3ccc(Cl)cc3)nc12 = 7.00 to 8.00
• CCCCCn1c(-c2ccccc2OC)cc(=O)n2cc(-c3ccc(Cl)cc3)nc12 = 7.00 to 8.00
• CCCCCn1c(OC(C)c2ccccc2)cc(=O)n2cc(-c3ccc(Cl)cc3)nc12 (centres unmarked) = 6.00 to 7.00
• CCCCCn1c(NCc2cccn2C)cc(=O)n2cc(-c3ccc(Cl)cc3)nc12 = 7.00 to 8.00
• CCCCCn1c(N2CCCCCC2)cc(=O)n2cc(-c3ccc(Cl)cc3)nc12 = 7.00 to 8.00

Would you mind listing pIC50 for each of the following compounds?
1. CCCCCn1c(-c2cc3ccccc3s2)cc(=O)n2cc(-c3ccc(Cl)cc3)nc12
2. Cc1cc(=O)n2cc(-c3ccc(Cl)cc3)nc2n1Cc1cccc(OCC(=O)O)c1
3. COC(=O)c1ccc(Cn2c(C)cc(=O)n3cc(-c4ccc(Cl)cc4)nc23)cc1
4. Cc1cc(=O)n2cc(-c3ccc(Cl)cc3)nc2n1Cc1ccc(C(C)(C)C)cc1

Solution:
["7.00 to 8.00", "6.00 to 7.00", "7.00 to 8.00", "6.00 to 7.00"]

Give one value of pIC50 per listed compound.
1. Cc1cc(=O)n2cc(-c3ccc(Cl)cc3)nc2n1CC1CCOC1 (centres unmarked)
2. CCCCCn1c(NCc2ccc(C(=O)OC)cc2)cc(=O)n2cc(-c3ccc(Cl)cc3)nc12
3. CCCCCn1c(C2=CCCCC2)cc(=O)n2cc(-c3ccc(Cl)cc3)nc12
4. CCCCCn1c(NCC(=O)O)cc(=O)n2cc(-c3ccc(Cl)cc3)nc12
5. CCCCCn1c(N2CCN(CCc3ccccc3)CC2)cc(=O)n2cc(-c3ccc(Cl)cc3)nc12
6. Cc1cc(=O)n2cc(-c3ccc(Cl)cc3)nc2n1Cc1ccc(C(C)C)cc1
7. CCCCCn1c(C)c(CCC(=O)OCC)c(=O)n2cc(-c3ccc(Cl)cc3)nc12

Solution:
1. 6.00 to 7.00
2. 7.00 to 8.00
3. 7.00 to 8.00
4. 7.00 to 8.00
5. 7.00 to 8.00
6. 7.00 to 8.00
7. > 8.00

----------
Provide the reported IC50 of each item.
# measuredOn: Human autotaxin enzyme (Homo sapiens, UniProt Q13822)
# Construct: purchased R&D System
# testDetails: Evaluation of autotaxin inhibitor, Method C (Test Example 3): 18:0 Lyso PC, choline assay, Resorufin fluorescence
# Type: biochemical
# conditionNotes: Assay Method C (Test Example 3), human autotaxin, 18:0 Lyso PC substrate; read-out: Inhibitory Activity (autotaxin enzyme inhibitory activity, IC50 class)

Previously resolved entries follow.
• CCCCCn1c(N2CCC[C@H]2C(=O)N2CCO[C@@H](C(=O)O)C2)cc(=O)n2cc(-c3ccc(Cl)cc3)nc12 [Compound 681] = < 10 nM
• CCCCCn1c(N2CCN(C(=O)c3ccc(O)cc3)CC2)cc(=O)n2cc(-c3ccc(Cl)cc3)nc12 [Compound 713] = 10 to 100 nM
• CCCCCn1c(N2C[C@@H](O)C[C@H]2C(=O)NCC(=O)O)cc(=O)n2cc(-c3ccc(Cl)cc3)nc12 [Compound 776] = < 10 nM

Please supply IC50 for each of the following items, keeping them in order.
1. CCCCCn1c(N2CCC[C@H]2C(=O)NC(C)C(=O)OC)cc(=O)n2cc(-c3ccc(Cl)cc3)nc12 (some centres unmarked) [Compound 685]
2. CCCCCn1c(N2CCCC[C@H]2C(=O)O)cc(=O)n2cc(-c3ccc(Cl)cc3)nc12 [Compound 604]
3. CCCCCn1c(N2CCN(CCC(=O)c3ccc4[nH]c(=O)oc4c3)CC2)cc(=O)n2cc(-c3ccc(Cl)cc3)nc12 [Compound 190]
4. CCCCCn1c(OCC2CCN(C(=O)OC(C)(C)C)C2)cc(=O)n2cc(-c3ccc(Cl)cc3)nc12 (centres unmarked) [Compound 553]
5. CCCCCn1c(N2CCC[C@@H](C(=O)NCCC(=O)O)C2)cc(=O)n2cc(-c3ccc(Cl)cc3)nc12 [Compound 624]

Solution:
["< 10 nM", "100 to 1000 nM", "10 to 100 nM", "100 to 1000 nM", "10 to 100 nM"]

Hi team, please reply with IC50 for each item in this list.
1. CCCCCn1c(-c2ccc(C(=O)NCCNC)cc2)cc(=O)n2cc(-c3ccc(Cl)cc3)nc12 [Compound 522]
2. CCCCCn1c(N2CCNC[C@@H]2C(=O)O)cc(=O)n2cc(-c3ccc(Cl)cc3)nc12 [Compound 659]
3. CCCCCn1c(OC2CCN(CC(=O)N3CCOCC3)CC2)cc(=O)n2cc(-c3ccc(Cl)cc3)nc12 [Compound 548]

Solution:
1: 10 to 100 nM; 2: > 1000 nM; 3: 100 to 1000 nM

Would you mind listing IC50 for each of the following molecules?
1. CCCCCn1c(O[C@@H]2CO[C@H]3[C@@H]2OC[C@H]3O)cc(=O)n2cc(-c3ccc(Cl)cc3)nc12 [Compound 544]
2. CCCCCn1c(-c2ccc(C(=O)N3CCC(O)CC3)cc2)cc(=O)n2cc(-c3ccc(Cl)cc3)nc12 [Compound 472]
3. CCCCCn1c(N2C[C@H](O)C[C@H]2C(=O)NCCC(=O)OCC)cc(=O)n2cc(-c3ccc(Cl)cc3)nc12 [Compound 593]

Solution:
100 to 1000 nM
10 to 100 nM
10 to 100 nM
